Provide the reported inhibition at 0.1 µM of each item.
- assay-target: PD brain-derived alpha-synuclein aggregates (Homo sapiens)
- Construct: PD brain-derived alpha-synuclein aggregates were spotted onto microarray slides; from tissue; host or cells: human Parkinson's disease patient brain
- test-description: Micro-radiobinding competition assay for the determination of binding affinity
- measurement-context: read-out: Competition at 100 nM (%)
Give bare numbers, in %.

1) O=C1c2cn(-c3cnc(N4CC[C@H](F)C4)cn3)nc2CN1c1cncs1 50
2) COc1cncc(N2Cc3nn(-c4cnc(N5CC[C@@H](F)C5)cn4)cc3C2=O)c1 48
3) O=C1c2cn(-c3cnc(N4CC[C@@H](F)C4)cn3)nc2CN1c1cncs1 106
4) COc1cncc(N2Cc3nn(-c4cnc(N5CC[C@H](F)C5)cn4)cc3C2=O)c1 59
5) COc1cncc(N2Cc3nn(-c4cnc(N5CC(F)C5)cn4)cc3C2=O)c1 41

We now examine a further compound.
Query string: Find inhibition at 0.1 µM (PD brain-derived alpha-synuclein aggregates (Homo sapiens)) for the entry "O=C1c2cn(-c3cnc(N4CC[C@H](F)C4)cn3)nc2CN1c1cccnc1"
Result string: 74

----------
Hi there, I'd appreciate the recorded inhibition at 1 µM for every entry that follows.
- assay-target: PD brain-derived alpha-synuclein aggregates (Homo sapiens, UniProt P37840)
- Construct: PD brain-derived alpha-synuclein aggregates were spotted onto microarray slides; from tissue; host or cells: human Parkinson's disease patient brain
- test-description: Micro-radiobinding competition assay for the determination of binding affinity
- measurement-context: non-radiolabelled example compound at 1 μM; competition with tritiated reference alpha-synuclein ligand (20 nM or 30 nM); 100% = excess non-radiolabelled reference ligand; read-out: Competition at 1 μM (%)
- Protocol: Micro-Radiobinding Competition Assay for the Determination of Binding Affinity PD brain-derived alpha-synuclein aggregates were spotted onto microarray slides. […] In some cases, the non-radiolabelled example compounds were further assessed for a range of different concentrations, varying from 0.05 nM to 2 μM. […] Quantification of the signal was performed by using the Beamage image analysis software (ai4R). […]
Please append the unit to your numeric answer.

# annotated cases, reported inhibition at 1 µM shown
compound	inhibition at 1 µM
Cc1ccc(N2Cc3nn(-c4ccc(N5CC[C@H](F)C5)nn4)cc3C2=O)cn1	39%
O=C1c2cn(-c3ccc(N4CC[C@@H](F)C4)nn3)nc2CN1c1cccnc1	74%
O=C1c2cn(-c3cnc(N4CC[C@@H](F)C4)cn3)nc2CN1c1cccnc1	95%

Provide inhibition at 1 µM values for the following items, in order.
1. O=C1c2cn(-c3ccc(N4CC[C@H](F)C4)nn3)nc2CN1c1ccns1
2. O=C1c2cn(-c3ccc(N4CC[C@@H](F)C4)nn3)nc2CN1c1ccns1
3. O=C1c2cn(-c3ccc(N4CCCC(F)CC4)nn3)nc2CN1c1cccnc1 (centres unmarked)
4. O=C1c2cn(-c3ccc(N4CC[C@H](F)C4)nn3)nc2CN1c1cncs1
5. O=C1c2cn(-c3ccc(N4CC[C@H](F)C4)nn3)nc2CN1c1cccnc1
6. Cn1cc(N2Cc3nn(-c4ccc(N5CC[C@H](F)C5)nn4)cc3C2=O)cn1

Result string:
77%
86%
51%
73%
77%
76%

----------
- assay-target: PD brain-derived alpha-synuclein aggregates (Homo sapiens, UniProt P37840)
- Construct: PD brain-derived alpha-synuclein aggregates were spotted onto microarray slides
- test-description: Micro-radiobinding competition assay for the determination of binding affinity
- measurement-context: concentration range 0.05 nM to 2 μM; nonlinear regression, one site specific binding model
- Description: Micro-Radiobinding Competition Assay for the Determination of Binding Affinity PD brain-derived alpha-synuclein aggregates were spotted onto microarray slides. […] In some cases, the non-radiolabelled example compounds were further assessed for a range of different concentrations, varying from 0.05 nM to 2 μM. […] Quantification of the signal was performed by using the Beamage image analysis software (ai4R). […]
So I've got a bunch of compounds here, and I need their Ki values.
Numbers only, in nM.

Take a look at these entries with their results.
compound	Ki (nM)
Cl.O=C1c2cn(-c3cnc(N4CC[C@@H](F)C4)nc3)nc2CN1c1cccnc1 [Example 37, hydrochloride]	356
O=C1c2cn(-c3ccc(N4CC[C@H](F)C4)nn3)nc2CN1c1cccnc1 [Example 24]	236
O=C1c2cn(-c3ccc(N4CC[C@@H](F)C4)nn3)nc2CN1c1cccnc1 [Example 20]	422
O=C1c2cn(-c3ccc(N4CC[C@H](F)C4)nn3)nc2CN1c1cncs1 [Example 25]	222

List reported Ki for each of these compounds:
1. O=C1c2cn(-c3cnc(N4CC[C@@H](F)C4)cn3)nc2CN1c1cncs1 [Example 9]
2. COc1cncc(N2Cc3nn(-c4ccc(N5CC[C@@H](F)C5)nn4)cc3C2=O)c1 [Example 23]
3. Cn1cc(N2Cc3nn(-c4cnc(N5CCCCC(F)C5)cn4)cc3C2=O)cn1 (stereo not shown) [Example 8]

Result string:
[10, 182, 33]
